Origin of the recorded values: patent US20260274833A1

# study.target: CDK2 (Homo sapiens, UniProt P24941)
# Construct: endogenous in cells; host or cells: OVCAR3 cells
# method: Phospho-RB measurement in OVCAR3 cells (HTRF phospho-RB cellular kit)
# Assay type: cell-based
# protocol.conditions: inhibition of RB phosphorylation at S807/811 (HTRF, TR-FRET ratio 665/620), 24 h compound treatment, 0.3 to 10,000 nM
property: IC50 (nM)

Completed entries (count: 2):
CC(C)(C)c1nc(-c2cccc(NS(=O)(=O)N3CCc4ncccc43)c2F)c(-c2ccnc(NC3CCN(S(C)(=O)=O)CC3)n2)s1; 291
CC(C)(C)c1nc(-c2cccc(NS(=O)(=O)N3CCc4c(C#N)cccc43)c2F)c(-c2ccnc(NC3CC4(C3)CS(=O)(=O)C4)n2)s1; 125

[a] COc1ccc2c(c1)CN(S(=O)(=O)Nc1cccc(-c3nc(C(C)(C)C)sc3-c3ccnc(NC4CCN(S(=O)(=O)N5CCNCC5)CC4)n3)c1F)C2
[b] O=S1(=O)CC2(CC(Nc3nccc(-c4sc(N5C6CCC5COC6)nc4-c4cccc(NS(=O)(=O)N5Cc6ccccc6C5)c4F)n3)C2)C1
query: Could you kindly indicate whether a or b has the higher IC50 value? Mark your answer with the label of the selected entry.
result: a

[1] CC(C)(C)c1nc(-c2cccc(NS(=O)(=O)N3Cc4cccc(F)c4C3)c2F)c(-c2ccnc(NC3CCN(S(C)(=O)=O)CC3)n2)s1
[2] CC(C)(C)c1nc(-c2cccc(NS(=O)(=O)N3Cc4cccc(Oc5ccccc5C#N)c4C3)c2F)c(-c2ccnc(NC3CC4(C3)CS(=O)(=O)C4)n2)s1
[3] CC(C)(C)c1nc(-c2cccc(NS(=O)(=O)N3Cc4cccc(C(F)F)c4C3)c2F)c(-c2ccnc(NC3CC4(C3)CS(=O)(=O)C4)n2)s1
[4] CCN(CC)S(=O)(=O)Nc1cccc(-c2nc(C(C)(C)C)sc2-c2ccnc(NC3CC4(C3)CS(=O)(=O)C4)n2)c1F
query: Could you please sort these 4 entries by IC50 from high to low? Return the labels ranked in the requested order, please.
result: 4, 2, 1, 3
(4: 8620 nM, 2: 583 nM, 1: 76 nM, 3: 31.2 nM)

[1] CN1CC2CCC(C1)N2c1nc(-c2cccc(NS(=O)(=O)N3Cc4ccccc4C3)c2F)c(-c2ccnc(NC3CC4(C3)CS(=O)(=O)C4)n2)s1
[2] CC(C)(C)c1nc(-c2cccc(NS(=O)(=O)N3CCc4ccc(S(C)(=O)=O)cc43)c2F)c(-c2ccnc(NC3CC4(C3)CS(=O)(=O)C4)n2)s1
query: Consider 1 and 2 . Which of these has its IC50 at a higher number? Answer format: the label of the selected item.
result: 2

[A] CC(C)(C)c1nc(-c2cccc(NS(=O)(=O)N3Cc4ccc(CO)cc4C3)c2F)c(-c2ccnc(NC3CC4(C3)CS(=O)(=O)C4)n2)s1
[B] CC(C)(C)c1nc(-c2cccc(NS(=O)(=O)N3Cc4cccc(Oc5ccccc5)c4C3)c2F)c(-c2ccnc(NC3CCN(S(C)(=O)=O)CC3)n2)s1
query: Hi there, can you help? I need to know whether A or B has lower measured IC50. Response format: the label of the selected entry.
result: A
(A: 77.4 nM, B: 613 nM)

###

# study.target: CDK2 (Homo sapiens, UniProt P24941)
# Construct: endogenous in cells; host or cells: OVCAR3 cells
# method: Phospho-RB measurement in OVCAR3 cells (HTRF phospho-RB cellular kit)
# Type: cell-based
# protocol.conditions: inhibition of RB phosphorylation at S807/811 (HTRF, TR-FRET ratio 665/620), 24 h compound treatment, 0.3 to 10,000 nM
pIC50: −log10 of the molar value.
property: pIC50

CC(C)(C)c1nc(-c2cccc(NS(=O)(=O)N3CCN(S(C)(=O)=O)CC3)c2F)c(-c2ccnc(NC3CCN(S(C)(=O)=O)CC3)n2)s1 [Example 93]; 5.52

[1] CC(C)Oc1cccc2c1CN(S(=O)(=O)Nc1cccc(-c3nc(C(C)(C)C)sc3-c3ccnc(NC4CC5(C4)CS(=O)(=O)C5)n3)c1F)C2 [Example 226]
[2] CC(C)c1nc(-c2cccc(NS(=O)(=O)N3CCc4ccccc43)c2F)c(-c2ccnc(NC3CCN(S(=O)(=O)N4CCNCC4)CC3)n2)s1 [Example 178]
query: Among 1 and 2 , whose measured pIC50 is the smaller figure? Respond with the label that goes with your answer.
result: 1

###

# study.target: CDK2 (Homo sapiens)
# Construct: endogenous in cells; host or cells: OVCAR3 cells
# method: Phospho-RB measurement in OVCAR3 cells (HTRF phospho-RB cellular kit)
# Type: cell-based
# protocol.conditions: inhibition of RB phosphorylation at S807/811 (HTRF, TR-FRET ratio 665/620), 24 h compound treatment, 0.3 to 10,000 nM
pIC50: −log10 of the molar value.
property: pIC50

Guide cases for pIC50, answers given:
N#Cc1ccc2c(c1)N(S(=O)(=O)Nc1cccc(-c3nc(C45CC(C4)C5)sc3-c3ccnc(N[C@H]4[C@@H]5CS(=O)(=O)C[C@@H]54)n3)c1F)CC2; 6.91
O=S1(=O)CC2(CC(Nc3nccc(-c4sc(C56CC(C5)C6)nc4-c4cccc(NS(=O)(=O)N5Cc6cccc(OC(F)F)c6C5)c4F)n3)C2)C1; 6.99

[A] COc1cccc2c1CN(S(=O)(=O)Nc1cccc(-c3nc(C4(C)CCOCC4)sc3-c3ccnc(N[C@H]4[C@@H]5CS(=O)(=O)C[C@@H]54)n3)c1F)C2
[B] CC(C)(C)c1nc(-c2cccc(NS(=O)(=O)N3Cc4ccccc4C3)c2F)c(-c2ccnc(Nc3ccc(N4CCNCC4)cc3)n2)s1
query: Out of A and B , name the one with the higher pIC50. Answer by quoting the chosen item's label.
result: A
(A: 8.04, B: 6.66)

[I] CN(C)CCN(C)S(=O)(=O)N1CCC(Nc2nccc(-c3sc(C(C)(C)C)nc3-c3cccc(NS(=O)(=O)N4CCOc5ccccc5C4)c3F)n2)CC1
[II] O=S1(=O)CC2(CC(Nc3nccc(-c4sc(C56CC(C5)C6)nc4-c4cccc(NS(=O)(=O)N5CCOc6ccccc6C5)c4F)n3)C2)C1
query: Please tell me which of the two, I or II , has the higher reported pIC50 value. Pick one; state its label.
result: I
(I: 6.67, II: 6.46)

###

# study.target: CDK2 (Homo sapiens)
# Construct: endogenous in cells; host or cells: OVCAR3 cells
# method: Phospho-RB measurement in OVCAR3 cells (HTRF phospho-RB cellular kit)
# Format: cell-based
# protocol.conditions: inhibition of RB phosphorylation at S807/811 (HTRF, TR-FRET ratio 665/620), 24 h compound treatment, 0.3 to 10,000 nM
property: IC50 (nM)

CC1(C)CN(S(=O)(=O)Nc2cccc(-c3nc(C45CC(C(F)(F)F)(C4)C5)sc3-c3ccnc(N[C@H]4CC[C@H](S(C)(=O)=O)CC4)n3)c2F)c2ccccc21; 2750
CNC(=O)c1ccc2c(c1)N(S(=O)(=O)Nc1cccc(-c3nc(C(C)(C)C)sc3-c3ccnc(NC4CCN(S(C)(=O)=O)CC4)n3)c1F)CC2; 355
CNCc1ccc2c(c1)N(S(=O)(=O)Nc1cccc(-c3nc(C(C)(C)C)sc3-c3ccnc(NC4CCN(S(C)(=O)=O)CC4)n3)c1F)CC2; 4040
CC1(c2nc(-c3cccc(NS(=O)(=O)N4Cc5ccncc5C4)c3F)c(-c3ccnc(NC4CC5(C4)CS(=O)(=O)C5)n3)s2)CCOCC1; 350

[A] CN1CC2CCC(C1)N2c1nc(-c2cccc(NS(=O)(=O)N3CCc4ccc(C(F)(F)F)cc43)c2F)c(-c2ccnc(N[C@H]3CC[C@H](S(C)(=O)=O)CC3)n2)s1
[B] CN1CCN(S(=O)(=O)Nc2cccc(-c3nc(C(C)(C)C)sc3-c3ccnc(NC4CCN(S(C)(=O)=O)CC4)n3)c2F)Cc2ccccc21
query: In the pair A and B , the larger recorded IC50 belongs to which? Could you answer with the label of the item you picked?
result: B
(B: 286 nM, A: 42.9 nM)

###

# study.target: CDK2 (Homo sapiens, UniProt P24941)
# Construct: endogenous in cells; host or cells: OVCAR3 cells
# method: Phospho-RB measurement in OVCAR3 cells (HTRF phospho-RB cellular kit)
# Type: cell-based
# protocol.conditions: inhibition of RB phosphorylation at S807/811 (HTRF, TR-FRET ratio 665/620), 24 h compound treatment, 0.3 to 10,000 nM
pIC50: −log10 of the molar value.
property: pIC50

CC(C)(C)c1nc(-c2cccc(NS(=O)(=O)N3Cc4cccnc4C3)c2F)c(-c2ccnc(NC3CCN(S(C)(=O)=O)CC3)n2)s1; 6.21

[1] CC(C)(C)c1nc(-c2cccc(NS(=O)(=O)N3Cc4ccccc4C3)c2F)c(-c2ccnc(NC3CCN(S(N)(=O)=O)CC3)n2)s1
[2] CC1c2ccccc2CN1S(=O)(=O)Nc1cccc(-c2nc(C(C)(C)C)sc2-c2ccnc(NC3CCN(S(=O)(=O)N4CCNCC4)CC3)n2)c1F (stereo not drawn)
[3] CNC(=O)c1ccc2c(c1)N(S(=O)(=O)Nc1cccc(-c3nc(C(C)(C)C)sc3-c3ccnc(NC4CC5(C4)CS(=O)(=O)C5)n3)c1F)CC2
[4] CS(=O)(=O)[C@H]1CC[C@H](Nc2nccc(-c3sc(C45CC(C(F)(F)F)(C4)C5)nc3-c3cccc(NS(=O)(=O)N4CCc5ccc(Cl)cc54)c3F)n2)CC1
query: Arrange items by their pIC50 values in increasing order. Would you mind listing the labels in the order asked for?
result: 3, 4, 2, 1
(3: 6.03, 4: 6.42, 2: 6.68, 1: 7.19)
